Values were extracted from patent US8883963B2.

Insulin secretion values for the molecules below.
- System: RIN5F (Rat Insulinoma) cells
- METHOD_SUMMARY: In vitro glucose-dependent insulin secretion (RIN5F cell assay screening protocol)
- Assay type: cell-based
- TEST_PARAMETERS: 10 nM test compd., 16.7 mM glucose load
Reply numerically in pg/µg/h, unit not repeated.

CCc1cc(OC)ccc1-c1ccc(CC(NC(=O)[C@H](CC(=O)O)NC(=O)[C@H](CO)NC(=O)[C@@H](NC(=O)C(C)(Cc2ccccc2F)NC(=O)[C@@H](NC(=O)CNC(=O)[C@H](CC(C(F)(F)F)C(F)(F)F)NC(=O)C(C)(C)NC(=O)[C@@H](N)Cc2c[nH]cn2)[C@@H](C)O)[C@H](C)O)C(=O)NC(CCCc2ccccc2)C(N)=O)cc1 (single isomer, unassigned)
29.6

Suppose we examine the molecule CCc1cc(OC)ccc1-c1ccc(CC(C(=O)N(C)C(CCCc2ccccc2)C(N)=O)N(C)C(=O)[C@H](CC(=O)O)N(C)C(=O)[C@H](CO)NC(=O)[C@@H](NC(=O)C(C)(Cc2ccccc2F)NC(=O)[C@@H](NC(=O)CNC(=O)C(CCC#N)NC(=O)C(C)(C)NC(=O)[C@@H](N)Cc2c[nH]cn2)[C@H](C)O)[C@H](C)O)cc1 (single isomer, unassigned) ; what Insulin secretion value has been reported? 36.0

Suppose we examine the molecule CCc1cc(OC)ccc1-c1ccc(CC(NC(=O)[C@H](CC(=O)O)NC(=O)[C@H](CO)NC(=O)[C@@H](NC(=O)[C@H](Cc2ccccc2)NC(=O)[C@@H](NC(=O)CNC(=O)[C@H](CCC(N)=O)NC(=O)[C@H](CO)NC(=O)[C@@H](N)Cc2c[nH]cn2)[C@@H](C)O)[C@@H](C)O)C(=O)NC(CCCc2ccccc2C(F)(F)F)C(N)=O)cc1 (single isomer, unassigned) ; what Insulin secretion value has been reported? 28.8
